All values here come from paper PMC10786891.

Listing: Kd of selected binders
Molecular target: T1, EsCas13d, nuclease-dead (Eubacterium siraeum, UniProt B0MS50, R295A;H300A;R849A;H854A)
T1 sequence: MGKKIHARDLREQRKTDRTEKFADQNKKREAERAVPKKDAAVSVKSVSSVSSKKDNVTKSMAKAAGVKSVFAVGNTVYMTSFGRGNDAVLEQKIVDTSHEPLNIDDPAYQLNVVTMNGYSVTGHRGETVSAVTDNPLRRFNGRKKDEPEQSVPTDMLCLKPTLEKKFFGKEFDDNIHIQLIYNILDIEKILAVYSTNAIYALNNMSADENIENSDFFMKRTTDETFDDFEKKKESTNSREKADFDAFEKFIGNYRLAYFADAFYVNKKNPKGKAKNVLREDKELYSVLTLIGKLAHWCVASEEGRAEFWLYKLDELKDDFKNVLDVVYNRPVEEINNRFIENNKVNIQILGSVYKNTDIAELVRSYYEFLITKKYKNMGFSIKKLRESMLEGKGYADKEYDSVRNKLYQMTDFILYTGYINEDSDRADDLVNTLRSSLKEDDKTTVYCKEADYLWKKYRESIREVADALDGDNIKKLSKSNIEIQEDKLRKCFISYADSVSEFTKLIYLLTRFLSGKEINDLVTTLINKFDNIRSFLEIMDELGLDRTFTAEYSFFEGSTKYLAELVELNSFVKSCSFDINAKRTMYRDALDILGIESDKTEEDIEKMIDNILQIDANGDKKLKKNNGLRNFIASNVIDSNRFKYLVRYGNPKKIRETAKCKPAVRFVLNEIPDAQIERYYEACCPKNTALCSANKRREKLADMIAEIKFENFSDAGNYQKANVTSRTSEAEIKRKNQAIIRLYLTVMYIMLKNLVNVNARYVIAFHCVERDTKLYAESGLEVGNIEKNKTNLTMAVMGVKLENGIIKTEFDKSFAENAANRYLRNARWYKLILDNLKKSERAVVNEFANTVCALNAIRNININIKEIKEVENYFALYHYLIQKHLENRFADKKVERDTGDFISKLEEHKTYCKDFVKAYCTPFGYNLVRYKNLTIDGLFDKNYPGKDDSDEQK
Assay: crRNA (strand 1, pre-loaded); Mg2+; 40 mM Tris-HCl pH 7.5, 150 mM NaCl, 6 mM MgCl2, 1 mM DTT, 0.1% Tween-20, 0.2 mg/ml BSA; 25 C; 10 min per concentration, then washed
Conditions: tags: His6-TwinStrep-SUMO cleaved; N-terminal SNAP kept (SNAP-Surface 488); label: 3' end held by stalled T7 RNA polymerase
measurement kind: Kd (nM)

binder	units	observed value
target 1 complement block 9-12 (mixed) RNA 1: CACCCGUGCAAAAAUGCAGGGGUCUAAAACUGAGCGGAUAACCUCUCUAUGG RNA 2: GGGAAUGGAUCCACAUCUACGAAUUCGUACCAUAGAGAGCAAUUCCGCUCACCGAGAUCGGAAGAGCACACGU	nM	19.9
target 1 C7U,G13A (mixed) RNA 1: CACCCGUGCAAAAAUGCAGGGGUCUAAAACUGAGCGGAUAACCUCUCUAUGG RNA 2: GGGAAUGGAUCCACAUCUACGAAUUCGUACCAUAGAGAAGUUAUUCGCUCACCGAGAUCGGAAGAGCACACGU	nM	6.2
target 1 A1C,C6A (mixed) RNA 1: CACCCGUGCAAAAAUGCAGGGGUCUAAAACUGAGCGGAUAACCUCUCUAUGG RNA 2: GGGAAUGGAUCCACAUCUACGAAUUCGUACCAUAGAGAGGUUAUCAGCUCCCCGAGAUCGGAAGAGCACACGU	nM	7
target 1 insC 3' of 14,insG 3' of 4 (mixed) RNA 1: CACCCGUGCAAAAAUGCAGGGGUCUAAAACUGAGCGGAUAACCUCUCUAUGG RNA 2: GGGAAUGGAUCCACAUCUACGAAUUCGUACCAUAGAGACGGUUAUCCGCGUCACCGAGAUCGGAAGAGCACACGU	nM	21
